Biological target: RNA-dependent DNA polymerase activity of HIV reverse transcriptase (Human immunodeficiency virus type 1 group M subtype B)
Construct: made in house
Assay: RNA-dependent DNA polymerase activity assay of HIV reverse transcriptase
Format: biochemical, HIV-1
Settings: 10 μM inhibitor concentration; activity in presence / in absence of analog x 100
Cut-off 60% on Residual activity (%) Polymerase, inclusive. At or above means Fulfilled; below means Not fulfilled.

Please check the record CCC(=O)c1cc2n(c(=O)c1C)Cc1c-2nc2ccccc2c1[Si](C)(C)C and state if its Residual activity (%) Polymerase is at or above 60%.
Fulfilled

Please do the same for CCCCCCc1c2c(nc3ccccc13)-c1cc(C(=O)CC)c(C)c(=O)n1C2 as well.
Not fulfilled

Please do the same for CCC(=O)c1cc2n(c(=O)c1C)Cc1c-2nc2ccc(OC)cc2c1-c1ccccc1 as well.
Fulfilled

Please do the same for Cc1ccc2nc3c(c(-c4ccccc4)c2c1)Cn1c-3cc(C(=O)CCC2CCCCC2)c(C)c1=O as well.
Fulfilled

Please do the same for CCC(O)c1cc2n(c(=O)c1C)Cc1c-2nc2ccc(OC)cc2c1-c1ccccc1 (stereo not drawn) as well.
Fulfilled

Please do the same for CCCCCCc1c2c(nc3ccc(F)cc13)-c1cc(C(=O)CC)c(C)c(=O)n1C2 as well.
Fulfilled

Please do the same for CCCCCCc1c2c(nc3ccc(F)cc13)-c1cc(C(O)CC)c(C)c(=O)n1C2 (stereo not drawn) as well.
Not fulfilled

Please do the same for Cc1ccc2nc3c(c([Si](C)(C)C)c2c1)Cn1c-3cc(C(=O)C(C)(C)C)c(C)c1=O as well.
Fulfilled

Please do the same for CCC(O)c1cc2n(c(=O)c1C)Cc1c-2nc2ccccc2c1[Si](C)(C)C(C)(C)C (stereo not drawn) as well.
Fulfilled

Please do the same for Cc1c(C(O)C(C)(C)C)cc2n(c1=O)Cc1c-2nc2ccc(F)cc2c1-c1ccccc1 (stereo not drawn) as well.
Fulfilled

###

Biological target: RNA-dependent DNA polymerase activity of HIV reverse transcriptase (Human immunodeficiency virus type 1 group M subtype B, UniProt P03366)
Construct: made in house
Assay: RNA-dependent DNA polymerase activity assay of HIV reverse transcriptase
Assay type: biochemical, HIV-1
Conditions: 10 μM inhibitor concentration; activity in presence / in absence of analog x 100
Residual activity (%) Polymerase overview
Lab book: enter the figure in %, no units written.

// solved cases for Residual activity (%) Polymerase follow
COc1ccc2nc3c(c([Si](C)(C)C(C)(C)C)c2c1)Cn1c-3cc(C(O)CCC2CCCCC2)c(C)c1=O (centres unmarked) ... 51
Cc1c(C(=O)C(C)(C)C)cc2n(c1=O)Cc1c-2nc2ccccc2c1[Si](C)(C)C ... 47

Can you look up the measured Residual activity (%) Polymerase of CCC(O)c1cc2n(c(=O)c1C)Cc1c-2nc2ccccc2c1-c1ccccc1 (centres unmarked) for me?
90

Please do the same for CCC(=O)c1cc2n(c(=O)c1C)Cc1c-2nc2ccc(OC)cc2c1[Si](C)(C)C as well.
50

Please do the same for Cc1ccc2nc3c(c([Si](C)(C)C)c2c1)Cn1c-3cc(C(=O)CCC2CCCCC2)c(C)c1=O as well.
59

###

Residual activity (%) Polymerase overview
Target: RNA-dependent DNA polymerase activity of HIV reverse transcriptase (Human immunodeficiency virus type 1 group M subtype B, UniProt P03366)
Construct: made in house
Assay: RNA-dependent DNA polymerase activity assay of HIV reverse transcriptase
Assay type: biochemical, HIV-1
Details: 10 μM inhibitor concentration; activity in presence / in absence of analog x 100
Lab book: enter the figure in %, no units written.

Cc1ccc2nc3c(c([Si](C)(C)C(C)(C)C)c2c1)Cn1c-3cc(C(=O)C(C)(C)C)c(C)c1=O ... 67
Cc1c(C(=O)C(C)(C)C)cc2n(c1=O)Cc1c-2nc2ccc(F)cc2c1-c1ccccc1 ... 61
Cc1c(C(O)C(C)(C)C)cc2n(c1=O)Cc1c-2nc2ccc(F)cc2c1[Si](C)(C)C(C)(C)C (stereo not drawn) ... 49
Cc1c(C(O)Cc2ccccc2)cc2n(c1=O)Cc1c-2nc2ccccc2c1[Si](C)(C)C (stereo not drawn) ... 54

Can you look up the measured Residual activity (%) Polymerase of Cc1c(C(O)C(C)(C)C)cc2n(c1=O)Cc1c-2nc2ccccc2c1[Si](C)(C)C(C)(C)C (stereo not drawn) for me?
71

Please do the same for CCC(O)c1cc2n(c(=O)c1C)Cc1c-2nc2ccc(C)cc2c1-c1ccccc1 (stereo not drawn) as well.
64
